B1: CCDC70 (parent)
chain: FSFKVSRWMGLACFRSLAASSPSI

Variants of: B1
Assay info: protein stability index of a GFP-peptide fusion (GPS, HEK-293T) (PSI 1-6); higher = more stable;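 also: lentivirally expressed fusions sorted by FACS into six bins by GFP to DsRed ratio, PSI derived from sequencing read proportions per bin multiplied by bin number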
Test conditions: c terminus: a fixed tail appended
// FALSE strictly below 3 in protein stability index; TRUE otherwise

- FSFKVSRWMNLACFRSLAASSPSI [G10N]: TRUE
- FSFKVSRWMGLCCFRSLAASSPSI [A12C]: TRUE
- FSFKVSRWMGLACFRGLAASSPSI [S16G]: TRUE
- FSFKVSRWMGLACFLSLAASSPSI [R15L]: TRUE
- FSFKVSRWMWLACFRSLAASSPSI [G10W]: TRUE
- FSFKVSRWMGAACFRSLAASSPSI [L11A]: TRUE
- FSFKVSRWMGLACFRSLAESSPSI [A19E]: TRUE
- FSFKVSRRMGLACFRSLAASSPSI [W8R]: FALSE
- FSQKVSRWMGLACFRSLAASSPSI [F3Q]: FALSE
- FSFKVSRWMGLACFRSLAYSSPSI [A19Y]: TRUE
- FSFKVSRWMGLACFRSVAASSPSI [L17V]: FALSE
- FSFKVSRWMGLACFRSLDASSPSI [A18D]: FALSE
- FSFKVSRWMGLACFRSLAAPSPSI [S20P]: FALSE
- FSPKVSRWMGLACFRSLAASSPSI [F3P]: FALSE
- FSFKVSRWMGLACFRSLAASKPSI [S21K]: FALSE
- FSFKVSRWMGLRCFRSLAASSPSI [A12R]: FALSE
- FSFKVSRWMGRACFRSLAASSPSI [L11R]: TRUE
- FSFKVPRWMGLACFRSLAASSPSI [S6P]: FALSE
- FSFCVSRWMGLACFRSLAASSPSI [K4C]: TRUE
- FSFKVRRWMGLACFRSLAASSPSI [S6R]: FALSE
- FSFKVSRWMGLACFDSLAASSPSI [R15D]: FALSE
- FSFKVSRWMGLACFQSLAASSPSI [R15Q]: TRUE
- FSFKVSRWMGLPCFRSLAASSPSI [A12P]: FALSE
- FSFKVSRWMGLACFRSLHASSPSI [A18H]: FALSE
- FSFKVSRWMGLAPFRSLAASSPSI [C13P]: FALSE
- FSFKVSMWMGLACFRSLAASSPSI [R7M]: FALSE
- FTFKVSRWMGLACFRSLAASSPSI [S2T]: FALSE
- FSFKVSRWMGLACFRSLAASWPSI [S21W]: FALSE
- FSFKVSYWMGLACFRSLAASSPSI [R7Y]: FALSE
- FSFKVSRWMGLACFRSYAASSPSI [L17Y]: FALSE
- FSFKVSRWMGLACFRQLAASSPSI [S16Q]: FALSE
- FSFKVSRWAGLACFRSLAASSPSI [M9A]: FALSE
- FSFNVSRWMGLACFRSLAASSPSI [K4N]: FALSE
- FSFKVSRWMGPACFRSLAASSPSI [L11P]: FALSE
- FSFKVSRWMGLACFRSLAARSPSI [S20R]: TRUE
- FSFKVSRWMGLACFRSLAASSPLI [S23L]: TRUE
- FSFKVSRWMCLACFRSLAASSPSI [G10C]: FALSE
- FSFKVSRHMGLACFRSLAASSPSI [W8H]: FALSE
- FYFKVSRWMGLACFRSLAASSPSI [S2Y]: FALSE
- FSFKVSREMGLACFRSLAASSPSI [W8E]: FALSE
- FSFKVSRWMGLACFRSLAASSPSG [I24G]: FALSE
- FSFKVSRWMGLVCFRSLAASSPSI [A12V]: FALSE
- FSFKVSRAMGLACFRSLAASSPSI [W8A]: FALSE
- FSFKVSRWNGLACFRSLAASSPSI [M9N]: FALSE
- FSFKVSRWMGLACFRSLYASSPSI [A18Y]: TRUE
- NSFKVSRWMGLACFRSLAASSPSI [F1N]: FALSE
- FSFKVSRWMGHACFRSLAASSPSI [L11H]: TRUE
- FSFTVSRWMGLACFRSLAASSPSI [K4T]: FALSE
- FSFKVLRWMGLACFRSLAASSPSI [S6L]: FALSE
- FSFKVSRWMGFACFRSLAASSPSI [L11F]: TRUE
- FSFKVSRWMGLALFRSLAASSPSI [C13L]: TRUE
- FAFKVSRWMGLACFRSLAASSPSI [S2A]: FALSE
- FSFKVSRWMGLACFRSLAASIPSI [S21I]: TRUE
- FSFKVSRWMGLACFRILAASSPSI [S16I]: FALSE
- FSFKVSRWMGLAIFRSLAASSPSI [C13I]: FALSE
- FSFKVSRWMGLACFRSLAAGSPSI [S20G]: FALSE
- FSFKVSRWMGLAYFRSLAASSPSI [C13Y]: TRUE
- FSFKVSRWPGLACFRSLAASSPSI [M9P]: FALSE
- FSFKVSRFMGLACFRSLAASSPSI [W8F]: TRUE
- FSVKVSRWMGLACFRSLAASSPSI [F3V]: FALSE
- FSFKVSRWEGLACFRSLAASSPSI [M9E]: FALSE
- FSFKVSRWMGLATFRSLAASSPSI [C13T]: FALSE
- FSFKVSRWDGLACFRSLAASSPSI [M9D]: TRUE
- FSFKVSRWMVLACFRSLAASSPSI [G10V]: FALSE
- FSCKVSRWMGLACFRSLAASSPSI [F3C]: FALSE
- FSFKVSRWMGLACFRSLAASSPSW [I24W]: TRUE
- FSFKVSRWMGLACFRSMAASSPSI [L17M]: FALSE
- FSFKVSRDMGLACFRSLAASSPSI [W8D]: FALSE
- FSFKVSRWMGLACFRSLANSSPSI [A19N]: TRUE
- FSFKVSRWMGLACFRSLRASSPSI [A18R]: FALSE
- FSFKVSRWMGLACDRSLAASSPSI [F14D]: FALSE
- FSFKVSRWMGLACFRSKAASSPSI [L17K]: FALSE
- FSFKVSRWMGLACFRSIAASSPSI [L17I]: FALSE
- FIFKVSRWMGLACFRSLAASSPSI [S2I]: TRUE
- FSFKVSAWMGLACFRSLAASSPSI [R7A]: FALSE
- FSFKVSRWMGLACARSLAASSPSI [F14A]: TRUE
- ESFKVSRWMGLACFRSLAASSPSI [F1E]: TRUE
- FSFKKSRWMGLACFRSLAASSPSI [V5K]: FALSE
- FSFKGSRWMGLACFRSLAASSPSI [V5G]: FALSE
- FSFMVSRWMGLACFRSLAASSPSI [K4M]: FALSE
- FSFKVSRWMGLACFRFLAASSPSI [S16F]: FALSE
- FSFKVERWMGLACFRSLAASSPSI [S6E]: TRUE
- FSFKVSVWMGLACFRSLAASSPSI [R7V]: TRUE
- FSFKVSRWMGLACFRSLAASEPSI [S21E]: TRUE
- FSHKVSRWMGLACFRSLAASSPSI [F3H]: FALSE
